# procedure_details: in vivo
# condition_set: mouse, po
measured_property: TD50 (mg/kg)
Quick reminder: number only, in mg/kg, skip the unit.

Worked examples, 3 compounds total:
CCNCC(=O)Nc1ccc(C2NC(=O)Cc3ccccc32)cc1 (stereo not drawn) :: 520
CCCNCC(=O)Nc1ccc(C2NC(=O)C(C)(C)c3ccccc32)cc1 (stereo not drawn) :: 435
CC(C)NCC(=O)Nc1ccc(C2NC(=O)Cc3ccccc32)cc1 (stereo not drawn) :: 270

# next compound below
Query: Give TD50 for CNCC(=O)Nc1ccc(C2NC(=O)Cc3ccccc32)cc1 (stereo not drawn)
Result: 270

###

# procedure_details: acute oral toxicity (LD50) in mice
# condition_set: mouse, in vivo, po
measured_property: LD50

CNCC(=O)Nc1ccc(C2NC(=O)Cc3ccccc32)cc1 (stereo not drawn) :: ~600 mg/kg
CCCNCC(=O)Nc1ccc(C2NC(=O)Cc3ccccc32)cc1 (stereo not drawn) :: ~2000 mg/kg

Query: Give LD50 for CCN(CC)CC(=O)Nc1ccc(C2NC(=O)C(C)(C)c3ccccc32)cc1 (stereo not drawn)
Result: ~1600 mg/kg

Query: Give LD50 for CCCCNCC(=O)Nc1ccc(C2NC(=O)C(C)(C)c3ccccc32)cc1 (stereo not drawn)
Result: > 1000 mg/kg

Query: Give LD50 for CCCNCC(=O)Nc1ccc(C2NC(=O)C(C)(C)c3ccccc32)cc1 (stereo not drawn)
Result: 1600 mg/kg

Query: Give LD50 for CCCNCC(=O)Nc1ccc(C2NC(=O)C(C(C)C)c3ccccc32)cc1 (stereo not drawn)
Result: 600 to 800 mg/kg
